Just for reference, ChEMBL document CHEMBL2390885 is where these values come from.

Assay text: Clearance in dog at 2.5 mg/kg, iv
Type: ADME, organism-based, Canis lupus familiaris
Set-up: dose 2.5 mg/kg, route intravenous
Stated conditions: in vivo
Quantity name: clearance (mL/min/kg)
State the answer as a number, implicitly in mL/min/kg.

Challenge: Specify reported clearance for the compound shown: CC(C)c1ccc2c(Nc3cc(C(=O)N[C@@H](C)c4ccccc4)ccc3Sc3ccc(N)cc3)ncnc2n1
Response given: 4.33

###

Assay text: AUC in dog at 2.5 mg/kg, po
Stated conditions: plasma
Quantity name: AUC
Answer shape: numeric part, then the unit.

Challenge: Specify reported AUC for the compound shown: CC(C)c1ccc2c(Nc3cc(C(=O)N[C@@H](C)c4ccccc4)ccc3Sc3ccc(N)cc3)ncnc2n1
Response given: 2350 ng·h/mL

###

Assay text: Clearance in Sprague-Dawley rat at 5 mg/kg, iv
Assay type: ADME, organism-based
Parameters: dose 5 mg/kg, route intravenous
Stated conditions: in vivo
Values of clearance greater than or equal to 10 mL/min/kg map to rule met; values below map to rule not met.

[
  {
    "Smiles code": "Cc1ccc([C@H](C)NC(=O)c2ccc(Sc3ccc(N)cc3)c(Nc3ncnc4nc(C(C)C)ccc34)c2)cc1",
    "Class assignment": "rule met"
  },
  {
    "Smiles code": "CC(C)c1ccc2c(Nc3cc(C(=O)N[C@@](C)(CO)c4ccccc4)ccc3Sc3ccc(N)cc3)ncnc2n1",
    "Class assignment": "rule met"
  },
  {
    "Smiles code": "COC(=O)Nc1ccc(Sc2ccc(C(=O)N[C@@H](C)c3ccccc3)cc2Nc2ncnc3nc(C(C)C)ccc23)cc1",
    "Class assignment": "rule met"
  },
  {
    "Smiles code": "CC(C)c1ccc2c(Nc3cc(C(=O)N[C@@H](C)C4CCCCC4)ccc3Sc3ccc(N)cc3)ncnc2n1",
    "Class assignment": "rule met"
  },
  {
    "Smiles code": "CC(C)c1ccc2c(Nc3cc(C(=O)N[C@H](c4ccccc4)C(F)(F)F)ccc3Sc3ccc(N)cc3)ncnc2n1",
    "Class assignment": "rule not met"
  },
  {
    "Smiles code": "CC(C)c1ccc2c(Nc3cc(C(=O)N[C@@H](C)c4ccc(Br)cc4)ccc3Sc3ccc(N)cc3)ncnc2n1",
    "Class assignment": "rule not met"
  }
]

Challenge: clearance >= 10 mL/min/kg for CC(C)c1ccc2c(Nc3cc(C(=O)N[C@@H](C)c4ccccc4)ccc3Sc3ccc(N)cc3)ncnc2n1 ?
Response given: rule not met

###

Test system: Hepatitis C virus
Assay text: Antiviral activity against Hepatitis C virus genotype 1b by replicon assay
Format: functional, organism-based, Hepacivirus hominis
Quantity name: EC50 (nM)
State the answer as a number, implicitly in nM.

Example entries and their recorded answers appear below.
[
  {
    "Compound": "CC(C)c1ccc2c(Nc3cc(C(=O)NC(C)c4ccccn4)ccc3Sc3ccc(N)cc3)ncnc2n1 (centres undefined)",
    "Assay system": "Hepatitis C virus",
    "Quantity name": "EC50",
    "Data value": 164
  },
  {
    "Compound": "CC(=O)Nc1ccc(Sc2ccc(C(=O)N[C@@H](C)c3ccccc3)cc2Nc2ncnc3nc(C(C)C)ccc23)cc1",
    "Assay system": "Hepatitis C virus",
    "Quantity name": "EC50",
    "Data value": 149
  }
]

Challenge: Output reported EC50 of the compound CC(C)c1ccc2c(Nc3cc(C(=O)N[C@@H](C)c4cccc(C(F)(F)F)c4)ccc3Sc3ccc(N)cc3)ncnc2n1 on Hepatitis C virus.
Response given: 21

Challenge: Output reported EC50 of the compound CC(C)c1ccc2c(Nc3cc(C(=O)N[C@H](CCO)c4ccccc4)ccc3Sc3ccc(N)cc3)ncnc2n1 on Hepatitis C virus.
Response given: 347

Challenge: Output reported EC50 of the compound Cc1cccc(C(C)NC(=O)c2ccc(Sc3ccc(N)cc3)c(Nc3ncnc4nc(C(C)C)ccc34)c2)c1 (centres undefined) on Hepatitis C virus.
Response given: 10

Challenge: Output reported EC50 of the compound CC(C)c1ccc2c(Nc3cc(C(=O)N[C@@H](C)C4CCCCC4)ccc3Sc3ccc(N)cc3)ncnc2n1 on Hepatitis C virus.
Response given: 45

Challenge: Output reported EC50 of the compound CC(C)c1ccc2c(Nc3cc(C(=O)N[C@@H](CCO)c4ccccc4)ccc3Sc3ccc(N)cc3)ncnc2n1 on Hepatitis C virus.
Response given: 242

Challenge: Output reported EC50 of the compound Cc1ccc2c(Nc3cc(C(=O)N[C@@H](C)c4ccccc4)ccc3Sc3ccc(N)cc3)ncnc2n1 on Hepatitis C virus.
Response given: 600

Challenge: Output reported EC50 of the compound CC(C)c1ccc2c(Nc3cc(C(=O)NC4(c5ccccc5)CC4)ccc3Sc3ccc(N)cc3)ncnc2n1 on Hepatitis C virus.
Response given: 700
